LC retention time values for the molecules below.
# test_method_notes: RP, Agilent ZORBAX Eclipse XDB-C18, 100 × 2.1 mm, 1.8 µm, 50 °C, 0.4 mL/min, estimated dead time 0.55 min; A: water + 0.1% formic acid, pH 3; B: methanol + 0.1% formic acid, pH 3; gradient (min/%B) 0/2 10/100 14.5/100 14.51/2 16.5/2
# settings: stereoisomer not certain
measured_property: LC retention time (min)

[[record]]
molecule = "CCCCCCCCCCCCCCCCCCCCCCCCCc1cc(O)cc(O)c1 [Alkylresorcinol C25:0]"
readout_unit = "min"
recorded_measurement = 13

[[record]]
molecule = "COC(=O)c1ccc(O)c(OC)c1 [Methyl vanillate]"
readout_unit = "min"
recorded_measurement = 5.37

[[record]]
molecule = "CC1CCC2(C(=O)O)CCC3(C)C(=CCC4C5(C)CCC(O)C(C)(C)C5CCC43C)C2C1C (stereo not given) [Ursolic acid]"
readout_unit = "min"
recorded_measurement = 10.7

[[record]]
molecule = "O=C(C=Cc1ccc(O)c(O)c1)OC1CC(O)(C(=O)O)CC(O)C1O (stereo not given) [Chlorogenic acid]"
readout_unit = "min"
recorded_measurement = 3.27

[[record]]
molecule = "O=c1c(O)c(-c2ccc(O)cc2)oc2cc(O)cc(O)c12 [Kaempferol]"
readout_unit = "min"
recorded_measurement = 6.86

[[record]]
molecule = "O=C(O)Cc1ccc(O)cc1 [4-Hydroxyphenylacetic acid]"
readout_unit = "min"
recorded_measurement = 3.26

[[record]]
molecule = "O=C(O)c1ccc(O)cc1 [4-Hydroxybenzoic acid]"
readout_unit = "min"
recorded_measurement = 2.91

[[record]]
molecule = "NCC(O)c1ccccc1 (stereo not given) [2-Amino-1-phenylethanol]"
readout_unit = "min"
recorded_measurement = 1.42

[[record]]
molecule = "COc1c(O)cccc1O [2-Methoxyresorcinol]"
readout_unit = "min"
recorded_measurement = 2.68

[[record]]
molecule = "Cn1cnc2c1c(=O)[nH]c(=O)n2C [Theobromine]"
readout_unit = "min"
recorded_measurement = 2.49

[[record]]
molecule = "O=C(O)Cc1ccccc1O [2-Hydroxyphenylacetic acid]"
readout_unit = "min"
recorded_measurement = 3.82

[[record]]
molecule = "O=Cc1cccc(O)c1 [3-Hydroxybenzaldehyde]"
readout_unit = "min"
recorded_measurement = 3.72

[[record]]
molecule = "O=C(O)C1OC(Oc2c(-c3ccc(O)cc3)oc3cc(O)cc(O)c3c2=O)C(O)C(O)C1O (stereo not given) [Kaempferol-3-O-glucuronide]"
readout_unit = "min"
recorded_measurement = 5.52

[[record]]
molecule = "CC(C)(CO)C(O)C(=O)NCCC(=O)O (racemic) [DL-Pantothenic acid]"
readout_unit = "min"
recorded_measurement = 2.42

[[record]]
molecule = "CC1=C(/C=C/C(C)=C/C=C/C(C)=C/C=C/C=C(C)/C=C/C=C(C)/C=C/C2=C(C)CCCC2(C)C)C(C)(C)CCC1 [beta-carotene]"
readout_unit = "min"
recorded_measurement = 13.8

[[record]]
molecule = "C=C1CCC(O)CC1=CC=C1CCCC2(C)C1CCC2C(C)C=CC(C)C(C)C (stereo not given) [Ergocalciferol]"
readout_unit = "min"
recorded_measurement = 11.8

[[record]]
molecule = "O=C(O)C=Cc1ccccc1 [Cinnamic acid-trans]"
readout_unit = "min"
recorded_measurement = 6.27

[[record]]
molecule = "O=C(O)CNC(=O)c1ccccc1 [Hippuric acid]"
readout_unit = "min"
recorded_measurement = 3.29

[[record]]
molecule = "COc1ccc(-c2cc(=O)c3c(OC)c(OC)c(OC)c(OC)c3o2)cc1 [Tangeretin]"
readout_unit = "min"
recorded_measurement = 8.59

[[record]]
molecule = "O=c1cc(-c2ccc(O)c(O)c2)oc2cc(O)cc(O)c12 [Luteolin]"
readout_unit = "min"
recorded_measurement = 6.42

[[record]]
molecule = "O=C(O)c1ccccc1O [Salicylic acid]"
readout_unit = "min"
recorded_measurement = 5.25

[[record]]
molecule = "COc1cc(C=CC(=O)O)cc(OC)c1O [Sinapic acid]"
readout_unit = "min"
recorded_measurement = 4.97

[[record]]
molecule = "O=C(O)c1ccc(O)c(O)c1 [Protocatechuic acid]"
readout_unit = "min"
recorded_measurement = 2.31

[[record]]
molecule = "O=C(O)c1cc(O)c(O)c(O)c1 [Gallic acid]"
readout_unit = "min"
recorded_measurement = 1.47

[[record]]
molecule = "OCC1OC(Oc2cc3c(O)cc(O)cc3[o+]c2-c2ccc(O)c(O)c2)C(O)C(O)C1O (stereo not given) [Cyanidin 3-O-glucoside]"
readout_unit = "min"
recorded_measurement = 3.52

[[record]]
molecule = "COc1cc(C=O)ccc1O [Vanillin]"
readout_unit = "min"
recorded_measurement = 4.06

[[record]]
molecule = "O=C(O)Cc1c[nH]c2ccccc12 [3-Indoleacetic acid]"
readout_unit = "min"
recorded_measurement = 5

[[record]]
molecule = "O=c1cc(-c2ccc(O)cc2)oc2cc(OC3OC(CO)C(O)C(O)C3O)cc(O)c12 (stereo not given) [Apigenin 7-O-glucoside]"
readout_unit = "min"
recorded_measurement = 5.5

[[record]]
molecule = "CC1OC(OC2C(O)C(OCCc3ccc(O)c(O)c3)OC(CO)C2OC(=O)C=Cc2ccc(O)c(O)c2)C(O)C(O)C1O (stereo not given) [Verbascoside]"
readout_unit = "min"
recorded_measurement = 4.86

[[record]]
molecule = "O=C(O)C(O)Cc1ccc(O)cc1 (stereo not given) [p-Hydroxyphenyllactic acid]"
readout_unit = "min"
recorded_measurement = 2.73


====

The following molecules are shown together with reported LC retention time values.
# test_method_notes: RP, Waters ACQUITY UPLC BEH Shield RP18, 100 × 2.1 mm, 1.7 µm, 30 °C, 0.6 mL/min, estimated dead time 0.37 min; A: water + 0.1% formic acid, pH 3; B: acetonitrile + 0.1% formic acid, pH 3; gradient (min/%B) 0/0 2/0 7/10 22/95 22.1/0 26/0
# settings: stereoisomer not certain
measured_property: LC retention time (min)

[[record]]
molecule = "O=C(O)c1cc(O)c(O)c(O)c1 [Gallic acid]"
recorded_measurement = 2.69

[[record]]
molecule = "OCC1OC(Oc2cc3c(O)cc(O)cc3[o+]c2-c2ccc(O)c(O)c2)C(O)C(O)C1O (stereo unspecified) [Cyanidin 3-O-glucoside]"
recorded_measurement = 10.8

[[record]]
molecule = "O=c1oc2cc(O)ccc2c2ccc(O)cc12 [Urolithin A]"
recorded_measurement = 14.9

[[record]]
molecule = "O=c1ccc2c(O)c3ccoc3cc2o1 [Bergaptol]"
recorded_measurement = 14.7

[[record]]
molecule = "O=c1oc2c(O)c(O)cc3c(=O)oc4c(O)c(O)cc1c4c23 [Ellagic acid]"
recorded_measurement = 13.1

[[record]]
molecule = "COc1ccc(C(=O)O)cc1OC [Veratric acid]"
recorded_measurement = 12

[[record]]
molecule = "Oc1ccc(C=Cc2cc(O)cc(O)c2)cc1 [Resveratrol]"
recorded_measurement = 14.7

[[record]]
molecule = "Oc1cc(O)c2c(c1)OC(c1ccc(O)c(O)c1)C(O)C2 (single isomer, unassigned; (-)) [(-)-Epicatechin]"
recorded_measurement = 11.5

[[record]]
molecule = "COc1ccc(C2CC(=O)c3c(O)cc(O)cc3O2)cc1O (stereo unspecified) [Hesperetin]"
recorded_measurement = 15.5

[[record]]
molecule = "COc1cc(C=CC(=O)O)cc(OC)c1O [Sinapic acid]"
recorded_measurement = 12.5

[[record]]
molecule = "O=c1oc2cc(O)ccc2c2ccccc12 [Urolithin B]"
recorded_measurement = 16


====

Listed next: entries and their corresponding LC retention time.
# test_method_notes: RP, Merck LiChrospher RP-18, 250 × 4 mm, 5 µm, 35 °C, 0.3 mL/min, estimated dead time 6.7 min; A: water + 0.5% formic acid; B: acetonitrile + 0.5% formic acid; gradient (min/%B) 0/5 10/5 30/15 45/20 65/20 95/54 110/63 115/5 135/5
# settings: stereoisomer not certain
measured_property: LC retention time (min)

[[record]]
molecule = "O=Cc1ccc(CO)o1 [5-Hydroxymethylfurfural]"
recorded_measurement = 24.2

[[record]]
molecule = "O=C(O)CC(O)C(=O)O (centres undefined) [malic acid]"
recorded_measurement = 8.06

[[record]]
molecule = "O=c1c(O)c(-c2ccc(OC3OC(CO)C(O)C(O)C3O)c(O)c2)oc2cc(O)cc(O)c12 (centres undefined) [Quercetin 4-O-glucoside]"
recorded_measurement = 78

[[record]]
molecule = "O=C(O)c1cc(O)c(O)c(O)c1 [Gallic acid]"
recorded_measurement = 16.5


====

# test_method_notes: RP, Phenomenex Luna Omega Polar C18, 100 × 2.1 mm, 1.6 µm, 40 °C, 0.5 mL/min, estimated dead time 0.44 min; A: water + 0.1% formic acid + 10 mM ammonium formate; B: acetonitrile; gradient (min/%B) 0/5 8/20 10/100 12/100 12.1/5 14/5
# settings: stereoisomer not certain
Entry class follows LC retention time: low value: < 7 min; medium value: ≥ 7 min and < 9 min; high value: ≥ 9 min

[[record]]
compound = "O=c1oc2cc(O)ccc2c2ccccc12"
category_label = "high value"

[[record]]
compound = "O=c1oc2cc(O)ccc2c2ccc(O)cc12"
category_label = "high value"

[[record]]
compound = "O=C(C=Cc1ccc(O)c(O)c1)OC1CC(O)(C(=O)O)CC(O)C1O (stereo not given)"
category_label = "low value"

[[record]]
compound = "O=C(O)C1OC(Oc2c(-c3ccc(O)cc3)oc3cc(O)cc(O)c3c2=O)C(O)C(O)C1O (stereo not given) [Kaempferol-3-O-glucuronide]"
category_label = "medium value"

[[record]]
compound = "COc1cc(CC(=O)O)ccc1O"
category_label = "low value"

[[record]]
compound = "O=c1c(O)c(-c2ccc(OS(=O)(=O)O)c(O)c2)oc2cc(O)cc(O)c12 [Quercetin 4-O-sulfate]"
category_label = "high value"

[[record]]
compound = "COc1cc(CC2COC(c3ccc(O)c(OC)c3)C2CO)ccc1O (single isomer, unassigned; (+)) [(+)-Lariciresinol]"
category_label = "high value"

[[record]]
compound = "O=C(O)Cc1ccc(O)cc1 [4-Hydroxyphenylacetic acid]"
category_label = "low value"

[[record]]
compound = "COc1cc(C=O)ccc1O"
category_label = "low value"

[[record]]
compound = "O=C(O)c1ccc(O)c(O)c1"
category_label = "low value"

[[record]]
compound = "COc1cc(C=CC(=O)O)cc(OC)c1O"
category_label = "medium value"

[[record]]
compound = "CC1OC(OC2C(O)C(OCCc3ccc(O)c(O)c3)OC(CO)C2OC(=O)C=Cc2ccc(O)c(O)c2)C(O)C(O)C1O (stereo not given) [Verbascoside]"
category_label = "medium value"

[[record]]
compound = "CCCCCCCCCCCCCCCCCc1cc(O)cc(O)c1"
category_label = "high value"

[[record]]
compound = "COc1c(O)cc(C(=O)O)cc1OS(=O)(=O)O [4-O-methylgallic acid 3-O-sulfate]"
category_label = "low value"

[[record]]
compound = "Oc1ccc(C=Cc2cc(O)cc(O)c2)cc1"
category_label = "high value"

[[record]]
compound = "COc1cc(C=CC(=O)CC(=O)C=Cc2ccc(O)c(OC)c2)ccc1O"
category_label = "high value"

[[record]]
compound = "COc1ccc(C2CC(=O)c3c(O)cc(O)cc3O2)cc1O (stereo not given)"
category_label = "high value"


All values here come from the RepoRT retention time repository (doi:10.1016/j.foodchem.2021.129757).
